# system: TRIM25 PRY/SPRY (Homo sapiens, UniProt Q14258 439-630)
# Sequence (Q14258 439-630): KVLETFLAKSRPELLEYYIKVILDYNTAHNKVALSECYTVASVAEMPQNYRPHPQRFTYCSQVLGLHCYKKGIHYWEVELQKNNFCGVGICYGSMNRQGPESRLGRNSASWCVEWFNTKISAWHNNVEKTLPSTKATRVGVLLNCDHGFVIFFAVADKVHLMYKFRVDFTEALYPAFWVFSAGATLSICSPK
# assayText: ITC; ITC: 20 mM MES pH 6.5, 75 mM NaCl, 0.5 mM TCEP, 20 C; protein NMR: 20 mM sodium phosphate pH 6.5, 150 mM NaCl, 2 mM TCEP, 293 K
# conditionDetails: protein: recombinant; tags: His-Trx, cleaved (3C); chain copies: 3; stem-loop (called 28-mer duplex RNA)

binder	Kd, nM
AUGGCUAGCUGGAGCCACCCGCAGUUCG (structured_RNA) [28-mer]	900
